- TESTED_TARGET: hCDA (Homo sapiens)
- Sequence (P32320 whole entry): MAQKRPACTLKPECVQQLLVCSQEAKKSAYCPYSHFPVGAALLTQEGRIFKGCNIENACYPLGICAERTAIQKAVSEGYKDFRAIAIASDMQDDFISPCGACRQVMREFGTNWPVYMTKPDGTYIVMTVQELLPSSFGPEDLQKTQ
ENDPOINT_LABEL: Ki (nM)
Field: numeric (nM). Do not append units.

Value (Ki, hCDA (Homo sapiens)) for record O=C1NCC=CCN1[C@H]1C[C@H](O)[C@@H](CO)O1 [dDiAzep, 8, 1,3-diazepin-2-one 2′-deoxyriboside] = 430
